Assignment: determine reported pKd for the given binders.
Target: LNX1_1, Q8TBB1
Sequence (Q8TBB1 261-371): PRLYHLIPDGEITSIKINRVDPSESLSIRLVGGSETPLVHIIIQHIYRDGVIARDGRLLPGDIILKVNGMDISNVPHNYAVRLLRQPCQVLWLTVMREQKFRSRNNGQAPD
Assay details: holdup assay
Parameters: key: below the threshold = too weak to quantify, mostly under pKd 3.1 to 4
Measurement context: plain residues with an end cap or a label only (N-terminal biotin on a linker: ado-ado)
Numbers only.

Reference set, count: 5
>  <Binder>
RHGSCVETSL [TMEM151B, Q8IW70]

>  <pKd>
3.66

$$$$
>  <Binder>
DDENIRTSDV [PLEKHA2, Q9HB19]

>  <pKd>
4.5

$$$$
>  <Binder>
MLSKQSESAI [FLVCR1, Q9Y5Y0]

>  <pKd>
3.52

$$$$
>  <Binder>
EALLQMESVA [CAVIN3, Q969G5]

>  <pKd>
3.81

$$$$
>  <Binder>
LGRSTPQSEV [DGKH, Q86XP1]

>  <pKd>
4.01

$$$$

// each binder listed below needs its pKd
1. LPHGHSTTRV [NLGN4X, Q8N0W4]
2. PRAEAEDSFL [PDGFRB, P09619]
3. KKMPSIESDV [GRIN2A, Q12879]
4. PEYLGLDVPV [ERBB2, P04626]

Result ::
[3.79, 3.83, 4.04, 3.58]
